Reported values: GI50 for SK-MEL-5 melanoma, one per item.

Ask: Look up and report measured GI50 for this entry: Nc1nc(Nc2ccccc2)c2ncn(Cc3cc4c(cc3Br)OCO4)c2n1
Result: 0.0485 µM

Ask: Look up and report measured GI50 for this entry: COc1ccc(C2C(C#N)=C(N)OC3=C2COc2ccc(F)cc23)cc1OC (centres undefined)
Result: 12.9 µM

Ask: Look up and report measured GI50 for this entry: C#CC(=O)Nc1cccc(Nc2nc3c(c(NCc4ccccc4)n2)CCCC3)c1
Result: 1.12 µM

Ask: Look up and report measured GI50 for this entry: CC(=O)O[C@@H]1C[C@]2(C(C)C)O[C@@]1(C)[C@@H]1CCC(C)=C1[C@@H]2OC(=O)/C=C/c1ccccc1
Result: 22.5 µM

Ask: Look up and report measured GI50 for this entry: Cc1[nH][nH]c(=O)c1C=Nc1ccc(-c2nc3ccccc3[nH]2)cc1
Result: 18 µM

Ask: Look up and report measured GI50 for this entry: C#C[C@]1(O)CC[C@H]2[C@@H]3CC=C4c5sc(Nc6ccccc6)nc5CC[C@]4(C)[C@H]3CC[C@@]21C
Result: 1.72 µM

Ask: Look up and report measured GI50 for this entry: CC(=O)Oc1ccc(Nc2c3ccccc3nc3ccccc23)cc1
Result: 0.984 µM

Ask: Look up and report measured GI50 for this entry: O=C1c2ccn(CCCCNC(CO)(CO)CO)c2C(=O)c2c1c(O)c1ccccc1c2O
Result: 5.21 µM

Ask: Look up and report measured GI50 for this entry: Nc1c(C(=O)N/N=C/c2ccc(-c3ccc(Cl)cc3)o2)cnn1-c1ccnc2c(C(F)(F)F)cccc12
Result: 49.1 µM

meta.source: PubChem BioAssay (NCI)
